Assay Procedure: MTT assay for cytotoxicity
Format: cell-based, Human
Run Parameters: human, HepG2.2.15 cells, half (50%) lethal concentration
Could you please mark condition met for values of CC50 at 8 days below 30 µM and condition not met for values at or above it?

• O=c1c2ccccc2c(-c2ccc(C(F)(F)F)nc2F)nn1Cc1ccc(Cl)cc1 = condition not met
• CCNCCCNc1ccc(-c2nn(Cc3ccc(C#N)cc3)c(=O)c3ccccc23)c(F)n1 = condition met
• CS(=O)(=O)CCNc1ccc(-c2nn(Cc3ccc(C#N)cc3)c(=O)c3ccccc23)c(F)n1 = condition not met
• CCOCCOCCNc1nc(F)c(-c2nn(Cc3ccc(C#N)cc3)c(=O)c3ccccc23)cc1Cl = condition not met
• CN(C)c1ccc(-c2nn(Cc3ccc(Cl)cc3)c(=O)c3ccccc23)c(F)n1 = condition not met
• O=c1c2ccccc2c(-c2cccnc2Cl)nn1Cc1ccc(Cl)cc1 = condition not met
• O=c1c2ccccc2c(-c2ccc(NC3CC3)nc2F)nn1Cc1ccc(Cl)cc1 = condition met
• COCNc1ccc(-c2nn(Cc3ccc(Cl)cc3)c(=O)c3ccccc23)c(F)n1 = condition not met
• COCCOc1ccc(-c2nn(Cc3ccc(C#N)cc3)c(=O)c3ccccc23)c(F)n1 = condition not met
• Nc1ccc(-c2nn(Cc3ccc(Cl)cc3)c(=O)c3ccccc23)c(F)n1 = condition met
• COC(=O)CCNc1nc(F)c(-c2nn(Cc3ccc(C#N)cc3)c(=O)c3ccccc23)cc1Cl = condition not met
• Cc1ccc(-c2nn(Cc3ccc(Cl)cc3)c(=O)c3ccc(C(F)(F)F)cc23)c(F)n1 = condition not met
• CC(C)(C)OC(=O)CCCNc1nc(F)c(-c2nn(Cc3ccc(C#N)cc3)c(=O)c3ccccc23)cc1Cl = condition not met
• [2H]C([2H])(c1ccc(Cl)cc1)n1nc(-c2ccc(C)nc2F)c2ccccc2c1=O = condition not met
• N#Cc1ccc(Cn2nc(-c3ccc(NCCCCO)nc3F)c3ccccc3c2=O)cc1 = condition not met
• CC(C)(C)Nc1ccc(-c2nn(Cc3ccc(C#N)cc3)c(=O)c3ccccc23)c(F)n1 = condition not met
• Cc1cnc(F)c(-c2nn(Cc3ccc(C#N)cc3)c(=O)c3ccccc23)c1 = condition not met
